pIC50 values by entry
targetOrTestSystem: Kir6.2 C166S/SUR2A (Rattus norvegicus, UniProt P70673, C166S)
Sequence (P70673 whole entry C166S): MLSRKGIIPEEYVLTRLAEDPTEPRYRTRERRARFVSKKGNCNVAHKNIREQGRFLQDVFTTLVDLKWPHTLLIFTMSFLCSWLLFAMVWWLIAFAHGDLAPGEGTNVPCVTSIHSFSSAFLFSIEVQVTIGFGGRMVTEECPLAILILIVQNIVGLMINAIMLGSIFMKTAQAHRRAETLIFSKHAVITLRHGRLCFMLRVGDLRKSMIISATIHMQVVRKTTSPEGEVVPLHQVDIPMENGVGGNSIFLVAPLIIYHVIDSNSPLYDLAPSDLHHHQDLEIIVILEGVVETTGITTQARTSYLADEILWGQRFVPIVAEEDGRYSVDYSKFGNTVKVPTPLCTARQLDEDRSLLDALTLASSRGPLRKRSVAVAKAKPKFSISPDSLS
Sequence (Q63563 whole entry partner): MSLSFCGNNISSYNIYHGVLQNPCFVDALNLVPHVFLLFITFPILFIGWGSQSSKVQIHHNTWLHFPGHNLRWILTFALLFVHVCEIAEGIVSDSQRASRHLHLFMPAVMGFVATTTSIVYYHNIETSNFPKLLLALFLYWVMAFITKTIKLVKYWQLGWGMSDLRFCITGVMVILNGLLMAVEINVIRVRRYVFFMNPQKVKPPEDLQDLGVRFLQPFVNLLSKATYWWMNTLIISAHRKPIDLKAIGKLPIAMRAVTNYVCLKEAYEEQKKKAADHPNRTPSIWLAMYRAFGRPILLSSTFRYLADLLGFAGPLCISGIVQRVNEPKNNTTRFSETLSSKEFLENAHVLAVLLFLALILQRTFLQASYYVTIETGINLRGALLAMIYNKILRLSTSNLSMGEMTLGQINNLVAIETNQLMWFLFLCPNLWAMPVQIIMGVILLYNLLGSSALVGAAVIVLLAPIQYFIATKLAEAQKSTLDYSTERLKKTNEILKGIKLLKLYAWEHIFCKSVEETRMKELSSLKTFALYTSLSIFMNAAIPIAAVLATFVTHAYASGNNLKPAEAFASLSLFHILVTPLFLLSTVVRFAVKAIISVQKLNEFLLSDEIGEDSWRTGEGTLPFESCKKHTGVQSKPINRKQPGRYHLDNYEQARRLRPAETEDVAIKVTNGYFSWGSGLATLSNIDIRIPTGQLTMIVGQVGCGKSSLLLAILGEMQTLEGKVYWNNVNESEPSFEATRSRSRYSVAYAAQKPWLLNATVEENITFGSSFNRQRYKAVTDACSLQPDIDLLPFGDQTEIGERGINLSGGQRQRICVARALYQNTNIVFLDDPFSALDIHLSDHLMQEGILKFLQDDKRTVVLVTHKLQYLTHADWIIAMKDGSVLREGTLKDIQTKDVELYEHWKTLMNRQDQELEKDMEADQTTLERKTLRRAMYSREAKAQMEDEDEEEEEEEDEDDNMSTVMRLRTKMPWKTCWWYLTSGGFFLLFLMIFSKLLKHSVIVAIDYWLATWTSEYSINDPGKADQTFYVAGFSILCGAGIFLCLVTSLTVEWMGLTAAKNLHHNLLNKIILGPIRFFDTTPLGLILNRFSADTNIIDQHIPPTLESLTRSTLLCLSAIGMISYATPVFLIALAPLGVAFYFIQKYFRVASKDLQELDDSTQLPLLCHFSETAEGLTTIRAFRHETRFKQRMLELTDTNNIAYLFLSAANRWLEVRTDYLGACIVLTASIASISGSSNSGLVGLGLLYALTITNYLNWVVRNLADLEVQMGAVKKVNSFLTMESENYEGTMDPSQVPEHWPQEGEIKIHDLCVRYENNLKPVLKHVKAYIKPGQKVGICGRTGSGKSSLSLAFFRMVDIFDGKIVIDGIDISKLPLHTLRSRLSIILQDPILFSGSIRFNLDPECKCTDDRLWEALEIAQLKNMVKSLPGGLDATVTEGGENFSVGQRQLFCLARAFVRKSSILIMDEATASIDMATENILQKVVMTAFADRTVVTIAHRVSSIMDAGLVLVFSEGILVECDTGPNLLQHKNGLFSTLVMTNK
experiment: Inside-out patch clamp, Cantú mutant C166S Kir6.2 with SUR2A
measurementSetup: C166S Kir6.2 (homolog of Kir6.1 C176S)/SUR2A, outward current
Conceptually, pIC50 converts a concentration in mol/L into minus its log10.

INSERT INTO measurements (compound, quantitativereadout) VALUES
  ('CN(CCOc1ccc(CC2SC(=O)NC2=O)cc1)c1ccccn1 (stereo not shown) [RSG]', 4.46),
  ('CC(C)OC(=O)CCC/C=C\C[C@@H]1[C@@H](/C=C/[C@@H](O)COc2cccc(C(F)(F)F)c2)[C@H](O)C[C@@H]1O [Travoprost]', 4.83),
  ('CC(C)NCC(O)COc1ccc(CCOCC2CC2)cc1 (stereo not shown) [Betaxolol]', 4.39);

Name the recorded pIC50 for CC(NCCc1ccc(O)cc1)C(O)c1ccc(O)cc1 (stereo not shown) [Ritodrine] . 4.98

---

targetOrTestSystem: Kir6.2/SUR2A (Rattus norvegicus)
Construct: expressed in transfected cells; host or cells: HEK293T
experiment: Inside-out patch clamp on HEK293T excised membrane patches, WT Kir6.2/SUR2A
Format: cell-based
measurementSetup: outward current component (+50 mV), inside-out patch, HEK293T, mean ± SEM, read-out: IC50 outward
outcomeMeasure: IC50

INSERT INTO results (compound, targetortestsystem, outcomemeasure, result) VALUES
  ('CC(C)NCC(O)COc1ccc(CCOCC2CC2)cc1 (stereo not shown)', 'Kir6.2/SUR2A (Rattus norvegicus)', 'IC50', '22.1 µM'),
  ('CC(C)OC(=O)CCC/C=C\C[C@@H]1[C@@H](/C=C/[C@@H](O)COc2cccc(C(F)(F)F)c2)[C@H](O)C[C@@H]1O', 'Kir6.2/SUR2A (Rattus norvegicus)', 'IC50', '2.46 µM'),
  ('CN(CCOc1ccc(CC2SC(=O)NC2=O)cc1)c1ccccn1 (stereo not shown)', 'Kir6.2/SUR2A (Rattus norvegicus)', 'IC50', '26 µM');

Then there is this compound:
For the compound shown here, CC(NCCc1ccc(O)cc1)C(O)c1ccc(O)cc1 (stereo not shown) , give the reported IC50. 7.09 µM

---

targetOrTestSystem: Kir6.2/SUR2A (Rattus norvegicus, UniProt P70673)
Construct: expressed in transfected cells; host or cells: HEK293T
Sequence (P70673 whole entry): as the sequence (P70673 whole entry C166S) above, with S166C counted along it
Sequence (Q63563 whole entry partner): as the sequence (Q63563 whole entry partner) above
experiment: Inside-out patch clamp on HEK293T excised membrane patches, WT Kir6.2/SUR2A
Format: cell-based
measurementSetup: inward current component (-80 mV), inside-out patch, HEK293T, read-out: IC50 inward
outcomeMeasure: IC50

Query (compound): CC(C)OC(=O)CCC/C=C\C[C@@H]1[C@@H](/C=C/[C@@H](O)COc2cccc(C(F)(F)F)c2)[C@H](O)C[C@@H]1O ; field requested: IC50 2300 nM
